# melting point annotations
Counter-ions that a name gives are not always drawn.

The examples below pair each entry with its known result.
molecule="CSc1ccc2[nH]c(=O)c(C(c3ccc(Cl)cc3)C3(O)CCNC(c4ccc(F)cc4C)C3)cc2c1 (stereo not shown) (as salt: hydrochloride)" result="> 250 °C"
molecule="CSc1ccc2[nH]c(=O)c(C(c3ccc(Cl)cc3)C3(O)CCNC(CC4CCCCC4)C3)cc2c1 (stereo not shown) (as salt: hydrochloride)" result="> 250 °C"
molecule="CSc1ccc2[nH]c(=O)c(C(c3ccc(Cl)cc3)C3(O)CCNC(Cc4ccc(F)c(F)c4)C3)cc2c1 (stereo not shown)" result="> 250 °C"

# context switch: different molecule, same melting point
Consider the molecule COc1nc2ccc(Cl)cc2cc1C(c1ccc(SC)cc1)C1(O)CCNC(c2ccc(F)cc2C)C1 (stereo not shown) [Compound 351] and give its measured melting point.
128 to 130 °C
